Entry source: PubChem BioAssay

experiment: PSAC antagonists in infected red cells, primary screen, cell-based, P. falciparum Indochina, OD700, 2 h (AID 1155);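 further: lysis reports solute entry through the parasite surface anion channel PSAC; channel blockers reduce lysis of infected cells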; conditions: P. falciparum Indochina infected erythrocytes, osmotic lysis OD700, called active from +8 up or from −8 down
Active and inactive are the calls of the source.
API: response.call in yes (1) (active), no (0) (inactive)

• C/C=C/CN(C(=O)C#Cc1ccccc1)[C@H](CO[Si](C)(C)C(C)(C)C)c1ccccc1 = no (0)
• CC(=O)c1ccc(C(O)C2C=CC3C(=O)N(C)C(=O)C3N2NC(=O)OC(C)(C)C)cc1 (centres undefined) = no (0)
• CN1C(=O)C2C(C1=O)C1C=C(c3ccc(CO)cc3)C2C(c2cccs2)N1C (centres undefined) = no (0)
• CCN(CC)c1ccc(N2CC=CC34O[C@@H]5C=CCOC(=O)[C@@H]5[C@H]3C(=O)N(CCCO)[C@@H]4C2=O)cc1 (some centres undefined) = no (0)
• C[C@H]1C2[C@H](Cc3ccccc3)NC(=O)[C@]23C(=O)NCC(=O)N2CCC[C@H]2C(=O)NC/C=C\C/C=C/C3[C@@H]2O[C@]12C (some centres undefined) = no (0)

### Prompt So what was the verdict on `COc1ccc(CCNC(=O)[C@@]2(C)c3ccccc3C(=O)N(Cc3cc(C(F)(F)F)cc(C(F)(F)F)c3)[C@H]2c2ccc(CO)cc2)cc1` in this test?
### Response no (0)

### Prompt So what was the verdict on `COCCOC(=O)N1C(=O)[C@@]2(c3cc(C#CCCO)ccc31)[C@H](c1ccc(O)cc1)N1[C@H](c3ccccc3)[C@H](c3ccccc3)OC(=O)[C@H]1[C@@H]2C(=O)N1CCc2cc(OC)c(OC)cc2C1` in this test?
### Response no (0)

### Prompt So what was the verdict on CCN(CC)c1ccc(N2CC=CC34O[C@@H]5C=CCOC(=O)[C@@H]5[C@H]3C(=O)N(CCO)[C@@H]4C2=O)cc1 (some centres undefined) in this test?
### Response no (0)

### Prompt So what was the verdict on `CCCC=C(CCC)[C@@H](NC(=O)c1ccco1)c1ccc(C(=O)OC)cc1` in this test?
### Response no (0)

### Prompt So what was the verdict on `CCCC[C@@H]1C[C@H]1[C@@H](NC(=O)c1ccc(C(F)(F)F)cc1)c1ccc(C(=O)OC)cc1` in this test?
### Response no (0)

### Prompt So what was the verdict on `COCC1=C([C@H](O)CCc2ccccc2)[C@H](CO)n2c(=O)n(-c3ccccc3)c(=O)n2C1` in this test?
### Response no (0)

### Prompt So what was the verdict on `O=C1N(CCS(=O)(=O)c2ccccc2)c2ccccc2[C@@H]2OC(c3ccc(OCCCO)cc3)=N[C@]12CCS(=O)(=O)c1ccccc1` in this test?
### Response yes (1)

### Prompt So what was the verdict on `CC(C)CNC(=O)[C@@H]1c2ccccc2C(=O)N(CC23CC4CC(CC(C4)C2)C3)[C@H]1c1ccc(CO)cc1` in this test?
### Response no (0)

====

test system: Neuregulin-1 EGF-like domain; test: binders of neuregulin-1 EGF-like domain, primary screen, biochemical, small-molecule microarray, 635 nm fluorescence (AID 1081); settings: small-molecule microarray binding, higher = more signal;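 further: binding of the protein to compounds printed on small-molecule microarray slides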
PROPERTY: composite z-score
Numbers only.

The examples below pair each entry with its known result.
- COCC(=C=CC[C@@H](O)c1ccc(OCCO)cc1)C[C@@H](O)COCc1ccccc1: 1.07
- C=C(CCCC)C(=O)CC[C@H](OC(=O)c1cccnc1)c1ccc(CO)o1: 1.23
- CC(C)C(=C=CC[C@@H](O)c1cccc(OCCO)c1)CCO: 0.364
- CN(C)C(=O)[C@]1(Cc2ccccc2)N=C(c2ccc(OCCCO)cc2)O[C@@H]1c1ccccc1: 1.28
- CC(C)(C)OC(=O)CC[C@]1(C(N)=O)N=C(c2ccc(OCCCO)cc2)O[C@H]1c1ccccc1CN=[N+]=[N-]: 1.47
- CC(C)CNC(=O)[C@@]1(C)c2ccccc2C(=O)N(Cc2cc(F)cc(C(F)(F)F)c2)[C@H]1c1ccc(CO)cc1: 1.11
- CN1C=C(C(=O)OCCS(C)(=O)=O)C(C(=O)OCCS(C)(=O)=O)=CC(CCCO)=CC1c1ccc(CN2CCCC2)cc1 (stereo not drawn): 1.35

### Prompt State the recorded composite z-score for this entry: `Cc1ccc(S[C@]2(C(=O)NCC(F)(F)F)CC(=O)N(C3CCCCC3)[C@@H]2c2ccc(CO)cc2)cc1`
### Response 0.631

====

assay: RPMI8226 myeloma cell viability, profiling panel, resazurin fluorescence, basal, 24 h, PK04 Diversity Set (AID 1180); settings: higher = more signal;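 further: RPMI8826 multiple myeloma cell line at 5000 cells per well; test concentration not given here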
Consider the following compounds; for each one, report its z-score.
Numbers only.

The examples below pair each entry with its known result.
• COCCOC(=O)N1C(=O)[C@@]2(c3cc(C#Cc4ccc(OC)cc4)ccc31)[C@H](C(=O)N1CCCCCCC1)[C@H]1C(=O)O[C@H](c3ccccc3)[C@H](c3ccccc3)N1[C@@H]2c1ccccc1OCCO = -0.429
• CCOC(=O)C[C@H]1[C@H](OC(=O)Cc2ccc3c(c2)OCO3)[C@@H](NC(=O)c2ccccc2)c2cc(OCCCO)ccc2N1C(=O)Cc1ccc(OC)cc1 = 0.636
• CN(C)CCCNC(=O)[C@@H]1c2ccccc2C(=O)N(C2Cc3ccccc3C2)[C@H]1c1ccc(CO)cc1 = 0.461
• Cc1ccc(S[C@]2(C(=O)NCCN3CCOCC3)CC(=O)N(C3CCCCC3)[C@@H]2c2ccc(CO)cc2I)cc1 = -1.29
• N[C@@H](Cc1ccccc1)Cn1cc(C2(O)CCCCC2)nn1 = -0.785

Would you kindly look at the next entry?
### Prompt State the recorded z-score for this entry: `C=CCOC(=O)[C@@H]1[C@H]2C(=O)O[C@H](c3ccccc3)[C@H](c3ccccc3)N2[C@H](c2ccc(OCCOC(=O)[C@H]3C[C@H]4C(=O)NCC(=O)N4[C@H]3c3ccc(O)cc3)cc2)[C@@]12C(=O)Nc1ccc(I)cc12`
### Response -0.331

====

target: Left-right determination factor 2 (Homo sapiens); test: LEFTY2 binders on small-molecule microarrays, primary screen, biochemical, small-molecule microarray, 635 nm fluorescence scan (AID 1110); details: LEFTY2 binding, higher = more signal
Consider the following compounds; for each one, report its composite z-score.
Numbers only.

The examples below pair each entry with its known result.
* CC#CCO[Si](C#CCCCCCC)(C(C)C)C(C)C | -3.37
* CC(C)CNC(=O)[C@@H]1c2ccccc2C(=O)N(C(C)C)[C@H]1c1ccc(CO)cc1 | -0.269

Batch request: composite z-score for each of the following compounds.
1. C=CCC(OC(C)=O)[C@@H]1[C@@H](N(Cc2ccc(-c3ccccc3)cc2)C(=O)c2ccc(C)cc2)c2cc(OCCCO)ccc2N1C(=O)c1ccc2ccccc2c1 (some centres not stated)
2. CCCC[C@H]1OB(O)C[C@H]2C1=C(COC)C[C@H]1C(=O)C=CC(=O)[C@H]12
3. COc1ccc([Si](C)(C)[C@H]2[C@H](CCn3cc([C@H](O)c4ccccc4)nn3)O[C@@]3(C(=O)N(c4ccccc4)c4ccccc43)[C@@H]2C)cc1

### Response
[-0.103, 0.594, -0.202]

Batch request: composite z-score for each of the following compounds.
1. COCCOC(=O)N1C(=O)[C@@]2(c3cc(C#Cc4ccc(OC)cc4)ccc31)[C@H](C(=O)N1CCCCCCC1)[C@H]1C(=O)O[C@H](c3ccccc3)[C@H](c3ccccc3)N1[C@@H]2c1ccccc1OCCO
2. O=C1N(Cc2ccccc2)c2ccccc2[C@H]2OC(c3ccc(OCCCO)cc3)=N[C@@]12Cc1ccccc1

### Response
1. 0.647
2. -0.116

====

Consider the following compounds; for each one, report its z-score.
target: NADPH oxidase 5 (Homo sapiens); experiment: NOX5-dependent H2O2 signal modulators, primary screen, NOX inhibitor project, cell-based, HEK293-NOX5, Amplex Red fluorescence (AID 1161); conditions: HEK293-NOX5, ionomycin, 45 min, higher = more signal
Give bare numbers.

The examples below pair each entry with its known result.
- CC(C)C(=C=CC[C@@H](O)c1ccc(OCCO)cc1)CCO: -0.971
- CC(C)C[C@@H]1NC(=O)[C@@]23C(=O)N[C@@H](Cc4ccccc4)C2[C@H](C)[C@@]2(C)O[C@H]2C3/C=C/C/C=C\CNC(=O)[C@@H](CC(C)C)NC1=O (some centres not stated): -3.22
- C#CCN([C@H](/C=C/C1CC1)[C@@H](O)Cc1ccccc1)[C@@H](Cc1ccccc1)C(=O)OC: -2.6
- CC(C)C(=C=CC[C@@H](O)c1ccccc1OCCO)C[C@@H](O)c1cc(Cl)cc(Cl)c1O: -1.8
- C=CCC(OC(C)=O)[C@@H]1[C@@H](N(Cc2cccc3ccccc23)C(=O)c2ccc(-c3ccccc3)cc2)c2cc(OCCCO)ccc2N1C(=O)c1ccc2ccccc2n1 (some centres not stated): 1.48
- CCCC=C(CCC)[C@@H](NS(=O)(=O)c1ccc(Cl)cc1)c1ccccc1: 1.59
- CCCCN1CC=CC23O[C@@H]4/C=C\CCC(C)OC(=O)C4[C@H]2C(=O)N(C(C)CO)[C@@H]3C1=O (some centres not stated): 1.27
- CC(C)c1ccc(NN2C(C(O)C(C)C)C=CC3C(=O)N(c4ccccc4)C(=O)C32)cc1 (configuration not stated): -4.95

Batch request: z-score for each of the following compounds.
1. C=CCN1C(=O)[C@]2(O[C@H](CCn3cc([C@H](O)c4ccccc4)nn3)[C@@H]([Si](C)(C)c3ccc(OC)cc3)[C@@H]2C)c2cc(N3C(=O)c4cccc5cccc3c45)ccc21
2. CCCCC(O)C1C=CC2C(=O)N(C)C(=O)C2N1Nc1ccccc1 (configuration not stated)
3. COCC(=C=CC[C@@H](O)c1cccc(OCCO)c1)C[C@@H](O)COCc1ccccc1
4. [N-]=[N+]=Nc1ccccc1[C@@H]1OC(c2ccc(OCCCO)cc2)=N[C@]1(Cc1ccccc1)C(N)=O

### Response
[0.797, -2.72, -1.62, -1.48]
